Test: Fold ratio of total AUC of Atazanavir in Sprague-Dawley rat at 3 ml/kg,po measured upto 24 hrs by UPLC-MS/MS analysis
Assay type: ADME
Settings: in vivo
Measured attribute: Ratio
Numbers only.

Examples from the recorded data:
{"Compound": "COC(=O)N[C@H](C(=O)N[C@@H](Cc1ccccc1)[C@H](CN(Cc1ccc(-c2ccccn2)cc1)NC(=O)[C@@H](NC(=O)OC)C(C)(C)C)OC(=O)OC(OC(=O)[C@@H](N)Cc1ccccc1)C(C)C)C(C)(C)C (stereo in doubt; 3v)", "Ratio": 0.3}
{"Compound": "COC(=O)N[C@H](C(=O)N[C@@H](Cc1ccccc1)[C@H](CN(Cc1ccc(-c2ccccn2)cc1)NC(=O)[C@@H](NC(=O)OC)C(C)(C)C)OC(=O)OC(OC(=O)[C@@H](N)Cc1ccccc1)C(C)C)C(C)(C)C (stereo in doubt; 3w)", "Ratio": 3.8}
{"Compound": "COC(=O)N[C@H](C(=O)N[C@@H](Cc1ccccc1)[C@H](CN(Cc1ccc(-c2ccccn2)cc1)NC(=O)[C@@H](NC(=O)OC)C(C)(C)C)OC(=O)OC(OC(=O)[C@H](N)C(C)C)C(C)C)C(C)(C)C (stereo in doubt; 5j)", "Ratio": 18}
{"Compound": "COC(=O)N[C@H](C(=O)N[C@@H](Cc1ccccc1)[C@H](CN(Cc1ccc(-c2ccccn2)cc1)NC(=O)[C@@H](NC(=O)OC)C(C)(C)C)OC(=O)OC(OC(=O)[C@@H](N)C(C)C)C(C)(C)C)C(C)(C)C (stereo in doubt; 4m)", "Ratio": 2}
{"Compound": "CCC(C)C(OC(=O)O[C@@H](CN(Cc1ccc(-c2ccccn2)cc1)NC(=O)[C@@H](NC(=O)OC)C(C)(C)C)[C@H](Cc1ccccc1)NC(=O)[C@@H](NC(=O)OC)C(C)(C)C)OC(=O)[C@@H](N)C(C)C (stereo in doubt; 4k)", "Ratio": 7.5}

Go through the list and state Ratio for each entry.
1. COC(=O)N[C@H](C(=O)N[C@@H](Cc1ccccc1)[C@H](CN(Cc1ccc(-c2ccccn2)cc1)NC(=O)[C@@H](NC(=O)OC)C(C)(C)C)OC(=O)OC(OC(=O)[C@H](C)N)C(C)C)C(C)(C)C (stereo in doubt; 3q)
2. COC(=O)N[C@H](C(=O)N[C@@H](Cc1ccccc1)[C@H](CN(Cc1ccc(-c2ccccn2)cc1)NC(=O)[C@@H](NC(=O)OC)C(C)(C)C)OC(=O)OC(OC(=O)C1(N)CC1)C(C)C)C(C)(C)C (stereo in doubt; 3x)
3. COC(=O)N[C@H](C(=O)N[C@@H](Cc1ccccc1)[C@H](CN(Cc1ccc(-c2ccccn2)cc1)NC(=O)[C@@H](NC(=O)OC)C(C)(C)C)OC(=O)OC(OC(=O)[C@@H](N)C(C)C)C(C)C)C(C)(C)C (stereo in doubt; 3s)
4. COC(=O)N[C@H](C(=O)N[C@@H](Cc1ccccc1)[C@H](CN(Cc1ccc(-c2ccccn2)cc1)NC(=O)[C@@H](NC(=O)OC)C(C)(C)C)OC(=O)OC(OC(=O)[C@H](C(C)C)N(C)C)C(C)C)C(C)(C)C (stereo in doubt; 5g)

7.3
5.1
6.8
7

Would you mind giving Ratio for every compound in the list below?
1. COC(=O)N[C@H](C(=O)N[C@@H](Cc1ccccc1)[C@H](CN(Cc1ccc(-c2ccccn2)cc1)NC(=O)[C@@H](NC(=O)OC)C(C)(C)C)OC(=O)OC(OC(=O)[C@@H](N)CC(C)C)C(C)C)C(C)(C)C (stereo in doubt; 3u)
2. CN[C@H](C(=O)OC(OC(=O)O[C@@H](CN(Cc1ccc(-c2ccccn2)cc1)NC(=O)[C@@H](NC(=O)OC)C(C)(C)C)[C@H](Cc1ccccc1)NC(=O)[C@@H](NC(=O)OC)C(C)(C)C)C(C)C)C(C)C (stereo in doubt; 5f)

1: 2.4; 2: 7
